Molecular target: 5-hydroxytryptamine receptor 5A (Homo sapiens)
Assay: activation of human 5-HT5A receptor – cell-based, luminescence, full-deck HTS, counter-screen for OPRM1-OPRD1 heterodimer agonist project, primary screen (AID 504692);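 note: 0% = cells with vehicle only and 100% = reference agonist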
Conditions: HTR5A agonist assay, at 9.3 µM, stronger effect = higher value
In all, about 340,000 compounds went through this assay and about 2,000 (0.59%) were called active. The sample holds actives, similar compounds and a random draw of the others, so the mix is not that of the screen.
# activation values compiled below
readout.label: activation (%)

>>> numeric_result("CC1CCN(CC(=O)Nc2nccs2)CC1")
-1.58
>>> numeric_result("Oc1[nH]c2ccccc2c1N=Nc1c(F)c(F)c(F)c(F)c1F")
4.3
>>> numeric_result("Cc1ccc(-n2c(=O)cc(N3CCN(Cc4ccccc4)CC3)[nH]c2=O)cc1")
7.71
>>> numeric_result("CCn1c(SCC(=O)Nc2ccc3c(c2)OCCO3)nnc1-c1ccncc1")
3.29
>>> numeric_result("Cc1c(-c2ccccc2)n[nH]c1C(=O)N=Nc1c(O)[nH]c2ccccc12")
12.7
>>> numeric_result("Cc1ccc2nc(-c3ccncc3)cc(C(=O)Nc3ccc4c(c3)OCCO4)c2c1")
12.6
>>> numeric_result("O=C(OC12CC3CC(CC(C3)C1)C2)c1ccc(NCc2cc(O)ccc2O)cc1")
21.4
>>> numeric_result("CCN(CC)CCNC(=O)c1ccc(NC(=O)c2cc(-c3ccncc3)nc3ccccc23)cc1")
2.22
>>> numeric_result("Cc1ccc2nc(-c3ccncc3)cc(C(=O)Nc3ccc(OC(F)F)cc3)c2c1")
1.14
>>> numeric_result("CCc1cccc(C)c1NS(=O)(=O)c1c(C)nc2sccn2c1=O")
0.59

====

Target: 5-hydroxytryptamine receptor 5A (Homo sapiens)
Assay: activation of human 5-HT5A receptor – cell-based, luminescence, full-deck HTS, counter-screen for OPRM1-OPRD1 heterodimer agonist project, primary screen (AID 504692);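 note: 0% = cells with vehicle only and 100% = reference agonist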
Details: HTR5A agonist assay, at 9.3 µM
Among all 340,000 compounds or so, about 2,000 (0.59%) were called active. No stated cut-off is given here; in the data, active means activation mostly above about 9.5% (no sharp cut-off); inactive means mostly below about 7.6%. What follows is part of a selection rich in actives, with near analogues and random picks from the rest.
Possible outcomes: 1 (active), -1 (inactive)

>>> label_class("Cc1cc(C(=O)OC(C)C(=O)Nc2cccc(S(=O)(=O)N3CCOCC3)c2)c(C)o1 (stereo not drawn)")
-1
>>> label_class("O=C(NCCCN1CCCC1=O)c1ccc(S(=O)(=O)Nc2ccccc2)cc1")
-1
>>> label_class("O=C(COc1ccc(S(=O)(=O)Nc2cccc(C(F)(F)F)c2)cc1)N1CCOCC1")
-1
>>> label_class("COc1ccccc1NS(=O)(=O)c1ccc(C(=O)N2CCN(c3ccccc3O)CC2)cc1")
-1
>>> label_class("O=C(Cc1ccc(Br)cc1)N1CCN(c2ccccn2)CC1")
-1
>>> label_class("CCOC(=O)c1cnc2sccn2c1=O")
1
>>> label_class("COc1ccc(CNc2nccs2)cc1")
-1
>>> label_class("CC(C)OC(=O)c1c(NC(=O)c2ccco2)sc2c1CCCC2")
1
>>> label_class("Cc1ccc(C(=O)N2CC(=O)Nc3ccccc32)o1")
-1
>>> label_class("COc1ccccc1CNC(=O)C1CCCN(S(=O)(=O)c2cccc3cccnc23)C1 (stereo not drawn)")
-1
>>> label_class("N=c1c2c3c(sc2ncn1CCCN1CCOCC1)CCCCC3")
-1
>>> label_class("O=C(Nc1ccc(C(=O)N2CCOCC2)cc1)Nc1cccc(C(F)(F)F)c1")
1
>>> label_class("COC(=O)c1c(NC(=O)C2CC(C)=C(C)CC2C(=O)O)sc2c1CCCCC2 (stereo not drawn)")
-1
>>> label_class("O=C(C(Cl)Cl)N1CCN(c2ccccn2)CC1")
-1
>>> label_class("COC(=O)c1sccc1NC(=O)CSc1ccccc1NS(=O)(=O)c1cc(Cl)ccc1Cl")
-1
>>> label_class("O=C(c1ccco1)N1CCN(Cc2cccc(C(F)(F)F)c2)CC1")
-1
>>> label_class("CN(C)/C=C/C(=O)c1cnc2sccn2c1=O")
-1
>>> label_class("CC(=O)c1cccc(NC(=O)C2CCN(C(=O)c3ccccc3Cl)CC2)c1")
-1
>>> label_class("CC(=O)c1c(C)[nH]c(C(=O)OCC(=O)NCCC(C)C)c1C")
-1
>>> label_class("CCNS(=O)(=O)c1ccc(NC(=O)c2cncc(Br)c2)cc1")
-1
>>> label_class("Nn1c(SCC(=O)Nc2nccs2)nnc1-c1ccco1")
-1
>>> label_class("CCOc1ccc(CCNC(=O)CCc2nnc3ccc(N4CCCC4)nn23)cc1OCC")
-1
>>> label_class("CCC(C)C(N=C1NS(=O)(=O)c2ccccc21)C(=O)N1CCC(C)CC1 (stereo not drawn)")
-1

====

Target: 5-hydroxytryptamine receptor 5A (Homo sapiens) (UniProt P47898)
Sequence (P47898 whole entry, looked up): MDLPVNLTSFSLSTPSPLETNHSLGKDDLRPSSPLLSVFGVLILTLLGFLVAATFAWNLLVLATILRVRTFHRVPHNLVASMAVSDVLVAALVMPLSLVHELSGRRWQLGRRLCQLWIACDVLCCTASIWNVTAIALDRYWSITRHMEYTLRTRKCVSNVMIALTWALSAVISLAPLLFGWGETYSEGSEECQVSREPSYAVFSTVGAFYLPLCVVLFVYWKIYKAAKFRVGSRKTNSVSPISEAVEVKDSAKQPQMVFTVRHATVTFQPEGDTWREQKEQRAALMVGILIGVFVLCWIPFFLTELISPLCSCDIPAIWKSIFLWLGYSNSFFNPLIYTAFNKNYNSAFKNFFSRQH
Experiment: activation of human 5-HT5A receptor – cell-based, luminescence, full-deck HTS, counter-screen for OPRM1-OPRD1 heterodimer agonist project, primary screen (AID 504692);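 note: 0% = cells with vehicle only and 100% = reference agonist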
Settings: HTR5A agonist assay, at 9.3 µM, stronger effect = higher value
Among all 340,000 compounds or so, about 2,000 (0.59%) were called active. Shown is part of a subset that was picked to be rich in actives.
readout.label: activation (%)

>>> numeric_result("Cc1cc(C)c(C)c(S(=O)(=O)Nc2cccnc2)c1C")
13.8
>>> numeric_result("CCc1ccc(OCC(=O)OC(C)C(=O)NC2CC2)cc1 (configuration not stated)")
1.16
>>> numeric_result("CC(=O)Nc1ccc(S(=O)(=O)NC2Cc3ccccc3C2)cc1")
4.91
>>> numeric_result("Cc1cc(C)c(C)c(S(=O)(=O)Nc2ccc(O)cc2)c1C")
3.2
>>> numeric_result("C[C@H]1[C@H]2c3nc4ccccc4n3C[C@H]1ON2C1CCCCC1")
1.56
>>> numeric_result("CC(=O)Nc1ccc(S(=O)(=O)NC(C)C(=O)OCC(=O)NC2CCCC2)cc1 (configuration not stated)")
3.96
>>> numeric_result("COc1ccc(S(=O)(=O)Nc2cccnc2)c(Cl)c1Cl")
-1.41

====

# activation values compiled below
Molecular target: 5-hydroxytryptamine receptor 5A (Homo sapiens)
Assay: activation of human 5-HT5A receptor – cell-based, luminescence, full-deck HTS, counter-screen for OPRM1-OPRD1 heterodimer agonist project, primary screen (AID 504692);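 note: 0% = cells with vehicle only and 100% = reference agonist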
Details: HTR5A agonist assay, at 9.3 µM, stronger effect = higher value
About 2,000 (0.59%) of roughly 340,000 compounds were called active. The list comes from a sample in which actives are over-represented; it also holds close analogues and randomly drawn compounds.
readout.label: activation (%)

>>> numeric_result("NC(N)=NCCCc1cn(CC(=O)N2CCNCC2)nn1")
12.4
>>> numeric_result("CCOC(=O)c1c(NC(=O)CSc2cn(CC)c3ccccc23)sc2c1CCC2")
-4.94
>>> numeric_result("COc1ccc(CCNS(=O)(=O)c2cccc([N+](=O)[O-])c2)cc1")
9
>>> numeric_result("CCCOc1cccc(C(=O)Nc2ccccc2C(=O)N2CCN(C)CC2)c1")
-7.36
>>> numeric_result("C/C(=N\\NS(=O)(=O)c1cccc([N+](=O)[O-])c1)c1cc2ccccc2o1")
11.2
>>> numeric_result("Cc1cc(-c2ccc(C)c(S(=O)(=O)NC(C)Cc3ccco3)c2)on1 (configuration not stated)")
11.8
>>> numeric_result("CCOC(=O)c1c(NC(=O)Cn2nc(C(F)(F)F)cc2C)sc2c1CCC2")
12.1
>>> numeric_result("O=c1cc(CO)oc(C(Nc2cccc([N+](=O)[O-])c2)c2ccccn2)c1O (configuration not stated)")
0.87
>>> numeric_result("Cc1ccc(NS(=O)(=O)c2cccs2)cc1S(=O)(=O)N1CCCCCC1")
0.15
>>> numeric_result("CCc1cc2c(N3CCN(c4nnc(CC)s4)CC3)ncnc2s1")
10.4
>>> numeric_result("CCc1cc2c(NC3CCCC3)ncnc2s1")
0.57
>>> numeric_result("O=C(c1noc2c1CCCC2)N1CCc2ccccc2C1")
5.42
>>> numeric_result("Cc1cc(-c2ccc(C)c(S(=O)(=O)NCCCN(Cc3ccccc3)C(C)C)c2)on1")
-3.67
>>> numeric_result("CCOC(=O)c1c(NC(=O)NC(C)(C)C)sc2c1CCN(C)C2")
-2.16
>>> numeric_result("CN(Cc1ccccc1F)C(=O)C(Cc1ccccc1)NC(=O)c1ccccc1 (configuration not stated)")
-1.74
>>> numeric_result("NNC(=O)c1ccc(COCC(F)(F)C(F)F)cc1")
8.26
>>> numeric_result("CCC(C)OC(=O)C(C)Oc1ccc(-c2ccccc2)cc1 (configuration not stated)")
3.02
>>> numeric_result("CN(Cc1ccccc1)C(=O)c1cccc(C(=O)N(C)Cc2ccccc2)c1")
-0.63
>>> numeric_result("C#CCOCCOCCOCCNc1nc(N2CCN(C(=O)Cn3cc(CCO)nn3)CC2)nc(N2CCN(C(=O)Cn3cc(CCCN=C(N)N)nn3)CC2)n1")
-2.92
>>> numeric_result("CCC(C)[C@@H](C(=O)N1CCNCC1)n1cc(CCCCN)nn1 (some centres not stated)")
-1.58
>>> numeric_result("CCOc1ccc(CN(Cc2ccco2)C(c2cccs2)c2nnnn2C(C)(C)C)cc1 (configuration not stated)")
-2.19
>>> numeric_result("CC(Cc1ccccc1)C(=O)N(C)Cc1ccccc1 (configuration not stated)")
12.5
